FYI, the data here is from ChEMBL document CHEMBL2046279.

- System: SW480
- protocol notes: Cytotoxicity against human SW480 cells by MTT assay
- Type: functional, cell-based
readout label: pIC50
Interpret pIC50 as the negative base-10 log of the concentration measured in mol/L.

INPUT: What value of pIC50 has been recorded for this entry: COc1cc2c(cc(OC)c3cc(C)c(O)cc32)c(C)c1O
OUTPUT: 4.69

INPUT: What value of pIC50 has been recorded for this entry: COC(=O)[C@@]1(O)[C@]2(Oc3cc4c(cc(OC)c5cc(C)c(O)cc54)c(C)c3O2)c2c(cc(OC)c3cc(C)c(O)cc23)[C@@]1(C)O (relative stereo)
OUTPUT: 4.80

INPUT: What value of pIC50 has been recorded for this entry: COC(=O)[C@@]1(O)[C@@]2(Oc3cc4c(cc(OC)c5cc(C)c(O)cc54)c(C)c3O2)c2c(cc(OC)c3cc(C)c(O)cc23)[C@@]1(C)O
OUTPUT: 4.81
